Experiment: Urea induced equilibrium unfolding followed by fluorescence
Assay type: physicochemical
Details: Y167W background, ΔGD-N mut − ΔGD-N wt
Give measured ΔΔGD-N for each item. Keep answers brief.

Which value of ΔΔGD-N has been reported for DFNB31_1/R145E: DFNB31_1 PDZ domain mutant R145E (protein, left off: His6, N-terminal, state not stated) GEVRLVSLREAKAHEGLGFSIRGGSEHGVGIWVSLVEPGSLAEKEGLRVGDQILRVNDKSLARVTHAEAVKALKGSKKLVLSVYSAGRI in the records?
-0.53 ± 0.05 kcal/mol

Entry under review: DFNB31_1/K209E: DFNB31_1 PDZ domain mutant K209E (protein, left off: His6, N-terminal, state not stated) GEVRLVSLRRAKAHEGLGFSIRGGSEHGVGIWVSLVEPGSLAEKEGLRVGDQILRVNDKSLARVTHAEAVKALEGSKKLVLSVYSAGRI . Reported ΔΔGD-N?
-0.15 ± 0.01 kcal/mol

I am curious: what ΔΔGD-N value has been reported for DFNB31_1/K206E: DFNB31_1 PDZ domain mutant K206E (protein, left off: His6, N-terminal, state not stated) GEVRLVSLRRAKAHEGLGFSIRGGSEHGVGIWVSLVEPGSLAEKEGLRVGDQILRVNDKSLARVTHAEAVEALKGSKKLVLSVYSAGRI ?
0.41 ± 0.03 kcal/mol

Look up ΔΔGD-N: DFNB31_1/K212E: DFNB31_1 PDZ domain mutant K212E (protein, left off: His6, N-terminal, state not stated) GEVRLVSLRRAKAHEGLGFSIRGGSEHGVGIWVSLVEPGSLAEKEGLRVGDQILRVNDKSLARVTHAEAVKALKGSEKLVLSVYSAGRI
1.2 ± 0.1 kcal/mol

# lookup: ΔΔGD-N of DFNB31_1/R144E: DFNB31_1 PDZ domain mutant R144E (protein, left off: His6, N-terminal, state not stated) GEVRLVSLERAKAHEGLGFSIRGGSEHGVGIWVSLVEPGSLAEKEGLRVGDQILRVNDKSLARVTHAEAVKALKGSKKLVLSVYSAGRI
-0.65 ± 0.05 kcal/mol

Data origin, for the record: paper PMC3563628
